The origin of these recorded values is patent US20250282768A1.

# Test system: p-IKKa levels in L363 (NIK translocated multiple myeloma) cells
# test_description: Assay 2: Effect of compounds on p-IKKa levels in L363 (NIK translocated multiple myeloma) cells
# Assay type: cell-based
# run_parameters: Homo sapiens, L-363, 6 h, read-out: Assay 2 IC50 (nM), p-IKKa (Ser 176/180) in BAFF stimulated L363 cells with MG132, 6 h; average if tested more than once
# Protocol: Assay 2: Effect of Compounds on p-IKKa Levels in L363 (NIK Translocated Multiple Myeloma) Cells All compounds tested were dissolved and serially diluted in DMSO, 1:3 dilution for 11 points in an Echo compatible plate. 100% DMSO was added to columns 12 and 24 of the plate to serve as high and low signal controls. This compound plate was used to spot 20 nL of compound or DMSO into a Greiner 384 well TC plate (781080). The final DMSO concentration was 0.3% (v/v) in cell assays. […]
Below, each entry is listed alongside its reported IC50.
property: IC50

INSERT INTO results (compound, measurement_target, result) VALUES
  ('Cc1cccc(Nc2nccc(-c3cccc(-c4cc([C@]5(O)CCN(C)C5=O)on4)n3)n2)n1', 'p-IKKa levels in L363 (NIK translocated multiple myeloma) cells', '50 to 500 nM'),
  ('CN1CC[C@@](O)(c2cc(-c3cccc(-c4ccnc(Nc5cnn(CC(F)F)c5)n4)n3)no2)C1=O', 'p-IKKa levels in L363 (NIK translocated multiple myeloma) cells', '< 50 nM'),
  ('Cc1nccc(Nc2nccc(-c3cccc(-n4cc([C@]5(O)CCN(C)C5=O)nn4)n3)n2)c1F', 'p-IKKa levels in L363 (NIK translocated multiple myeloma) cells', '< 50 nM'),
  ('CN1CC[C@@](O)(c2cn(-c3cccc(-c4ccnc(Nc5cnn6c5CCCC6)n4)n3)nn2)C1=O', 'p-IKKa levels in L363 (NIK translocated multiple myeloma) cells', '< 50 nM'),
  ('CCn1ccc(Nc2nccc(-c3cccc(-n4cc([C@]5(O)CCN(C)C5=O)nn4)n3)n2)n1', 'p-IKKa levels in L363 (NIK translocated multiple myeloma) cells', '< 50 nM'),
  ('C[C@H](Nc1nccc(-c2cccc(-c3cc([C@]4(O)CCN(C)C4=O)on3)n2)n1)c1ccn(C)n1 (single isomer, unassigned)', 'p-IKKa levels in L363 (NIK translocated multiple myeloma) cells', '50 to 500 nM'),
  ('CN1CC[C@@](O)(c2cc(-c3cccc(-c4ccnc(NC5COC5)n4)n3)no2)C1=O', 'p-IKKa levels in L363 (NIK translocated multiple myeloma) cells', '50 to 500 nM'),
  ('COc1cn(C)nc1Nc1nccc(-c2cccc(-c3cc([C@]4(O)CCN(C)C4=O)on3)c2)n1', 'p-IKKa levels in L363 (NIK translocated multiple myeloma) cells', '> 500 nM'),
  ('CN1CC[C@@](O)(c2cc(-c3cccc(-c4ccnc(Nc5nnn(C)n5)n4)n3)no2)C1=O', 'p-IKKa levels in L363 (NIK translocated multiple myeloma) cells', '50 to 500 nM'),
  ('CC(Nc1nccc(-c2cccc(-c3cc([C@]4(O)CCN(C)C4=O)on3)n2)n1)c1cc[nH]n1 (some centres unmarked)', 'p-IKKa levels in L363 (NIK translocated multiple myeloma) cells', '50 to 500 nM'),
  ('CN1CC[C@@](O)(c2cc(-c3cccc(-c4ccnc(Nc5cnn([C@@H]6CCN(C7COC7)C6)c5)n4)n3)no2)C1=O (single isomer, unassigned)', 'p-IKKa levels in L363 (NIK translocated multiple myeloma) cells', '< 50 nM'),
  ('CN1CC[C@@](O)(c2cc(-c3cccc(-c4ccnc(Nc5cnn([C@H]6CCN(C7COC7)C6)c5)n4)n3)no2)C1=O (single isomer, unassigned)', 'p-IKKa levels in L363 (NIK translocated multiple myeloma) cells', '< 50 nM'),
  ('Cc1cc([C@@H](C)Nc2nccc(-c3cccc(-c4cc([C@]5(O)CCN(C)C5=O)on4)n3)n2)no1', 'p-IKKa levels in L363 (NIK translocated multiple myeloma) cells', '50 to 500 nM'),
  ('CN1CC[C@@](O)(c2cc(-c3cccc(-c4ccnc(Nc5nnc(C(F)F)o5)n4)n3)no2)C1=O', 'p-IKKa levels in L363 (NIK translocated multiple myeloma) cells', '> 500 nM');

* * *

# Tested on: p-IKKa levels in L363 (NIK translocated multiple myeloma) cells
# test_description: Assay 2: Effect of compounds on p-IKKa levels in L363 (NIK translocated multiple myeloma) cells
# Type: cell-based
# run_parameters: Homo sapiens, L-363, 6 h, read-out: Assay 2 IC50 (nM), p-IKKa (Ser 176/180) in BAFF stimulated L363 cells with MG132, 6 h; average if tested more than once
property: IC50

INSERT INTO assay_data (compound, measurement_target, result) VALUES
  ('CO[C@H](CNc1nccc(-c2cccc(-c3cc([C@]4(O)CCN(C)C4=O)on3)n2)n1)C(F)(F)F (single isomer, unassigned) [Example 462]', 'p-IKKa levels in L363 (NIK translocated multiple myeloma) cells', '50 to 500 nM'),
  ('C[C@H](Nc1nccc(-c2cccc(-c3cc([C@]4(O)CCN(C)C4=O)no3)n2)n1)c1cnn(C)c1 (single isomer, unassigned) [Example 400]', 'p-IKKa levels in L363 (NIK translocated multiple myeloma) cells', '> 500 nM'),
  ('CN1CC[C@@](O)(c2cc(-c3cccc(-c4ccnc(Nc5cnn6c5COCC6)n4)n3)no2)C1=O [Example 302]', 'p-IKKa levels in L363 (NIK translocated multiple myeloma) cells', '< 50 nM'),
  ('CN1CC[C@@](O)(c2cc(-c3cccc(-c4ccnc(Nc5cnn(CCN6CCOCC6)c5)n4)n3)no2)C1=O [Example 62]', 'p-IKKa levels in L363 (NIK translocated multiple myeloma) cells', '< 50 nM'),
  ('Cc1c(Nc2nccc(-c3cccc(-c4cc([C@]5(O)CCN(C)C5=O)on4)n3)n2)cnn1C [Example 222]', 'p-IKKa levels in L363 (NIK translocated multiple myeloma) cells', '< 50 nM'),
  ('CN1CC[C@@](O)(c2cc(-c3cccc(-c4ccnc(N[C@@H]5CCCOC5)n4)n3)no2)C1=O [Example 455]', 'p-IKKa levels in L363 (NIK translocated multiple myeloma) cells', '> 500 nM'),
  ('CNC(=O)c1cnc(C)c(Nc2nccc(-c3cccc(-c4cc([C@]5(O)CCN(C)C5=O)on4)n3)n2)c1 [Example 473]', 'p-IKKa levels in L363 (NIK translocated multiple myeloma) cells', '50 to 500 nM');

* * *

Below, each entry is listed alongside its reported IC50.
# System: p-IKKa levels in L363 (NIK translocated multiple myeloma) cells
# test_description: Assay 2: Effect of compounds on p-IKKa levels in L363 (NIK translocated multiple myeloma) cells
# Format: cell-based
# run_parameters: Homo sapiens, L-363, 6 h, read-out: Assay 2 IC50 (nM), p-IKKa (Ser 176/180) in BAFF stimulated L363 cells with MG132, 6 h; average if tested more than once
property: IC50

INSERT INTO measurements (compound, result) VALUES
  ('CN1CC[C@](O)(c2cc(-c3cccc(-c4ccnc(Nc5ccn(C)n5)n4)n3)[nH]n2)C1=O (single isomer, unassigned)', '> 500 nM'),
  ('CN1CC[C@@](O)(c2cn(-c3cccc(-c4ccnc(Nc5cnn(C)c5Cl)n4)n3)nn2)C1=O', '< 50 nM'),
  ('CN1CC[C@@](O)(c2cc(-c3cccc(-c4ccnc(Nc5cncc(F)c5)n4)n3)no2)C1=O', '< 50 nM'),
  ('Cc1nn(C2CCOCC2)cc1Nc1nccc(-c2cccc(-c3cc([C@]4(O)CCN(C)C4=O)on3)n2)n1', '< 50 nM'),
  ('C[C@@H](Nc1nccc(-c2cccc(-c3cc([C@]4(O)CCN(C)C4=O)on3)n2)n1)c1cn2ccccc2n1', '50 to 500 nM'),
  ('CN1CC[C@@](O)(c2cc(-c3cccc(-c4nc(Nc5ccn(C)n5)ncc4F)c3)no2)C1=O', '> 500 nM'),
  ('CC1OCCn2ncc(Nc3nccc(-c4cccc(-c5cc([C@@]6(O)C(=O)N(C)CC6(F)F)on5)n4)n3)c21 (single isomer, unassigned)', '50 to 500 nM');
